# pEC50 values compiled below
SYSTEM TESTED: human ghrelin receptor (hGHS-R1a) (Homo sapiens)
Construct: host or cells: CHO-K1 co-expressing Gα16 and mitochondrially targeted aequorin
Sequence (Q92847 whole entry): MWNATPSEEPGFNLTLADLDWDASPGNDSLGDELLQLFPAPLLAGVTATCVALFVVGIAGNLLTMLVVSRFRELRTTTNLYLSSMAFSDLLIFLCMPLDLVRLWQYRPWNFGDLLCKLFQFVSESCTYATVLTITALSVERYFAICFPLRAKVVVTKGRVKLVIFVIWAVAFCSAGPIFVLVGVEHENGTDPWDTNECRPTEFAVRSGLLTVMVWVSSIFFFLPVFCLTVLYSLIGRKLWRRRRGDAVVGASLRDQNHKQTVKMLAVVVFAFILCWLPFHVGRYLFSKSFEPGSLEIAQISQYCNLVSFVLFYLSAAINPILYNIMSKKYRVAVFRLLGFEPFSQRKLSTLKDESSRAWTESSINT
TEST DESCRIPTION: Aequorin functional assay (ghrelin receptor), CHO-K1 cells co-expressing Gα16 and aequorin
Format: cell-based
CONDITIONS USED: Table 4; functional (agonist) activity; TFA salts unless otherwise noted; read-out: EC50
pEC50: −log10 of the molar value.

Some solved entries appear below for comparison.
CCC[C@@H]1NCCOc2ccccc2CCCNC(=O)[C@@H](Cc2ccccc2)NC(=O)CN(C)C1=O [Compound 10]
7.00 to 9.00
CCC(C)[C@@H]1NC[C@@H](C)Oc2ccccc2CCCNC(=O)[C@@H](Cc2ccccc2)NC(=O)[C@@H](C)N(C)C1=O (stereo partly drawn) [compound 35]
7.00 to 9.00
CC(C)[C@@H]1NCCOc2ccccc2CCCNC(=O)[C@@H](Cc2ccccc2)NC(=O)CN(C)C1=O [Compound 3]
6.00 to 7.00
C[C@@H]1C(=O)N[C@H](Cc2ccccc2)C(=O)NCCCc2ccccc2OCCN[C@@H](C2CC2)C(=O)N1C [compound 17]
7.00 to 9.00
CCC[C@@H]1NCCOc2ccccc2CCCNC(=O)[C@@H](Cc2ccccc2)NC(=O)CN(CC)C1=O [compound 5]
6.00 to 7.00

Challenge: Under human ghrelin receptor (hGHS-R1a) (Homo sapiens), report pEC50 for CC(C)C[C@@H]1NCCOc2ccccc2/C=C/CNC(=O)[C@H](Cc2ccccc2)NC(=O)C2(CCCC2)NC1=O [Compound 8]
Response given: 7.00 to 9.00

Challenge: Under human ghrelin receptor (hGHS-R1a) (Homo sapiens), report pEC50 for CCC(C)[C@@H]1NC[C@@H](C)Oc2ccccc2CCCNC(=O)[C@@H](Cc2ccccc2)NC(=O)[C@@H](C)N(C)C1=O (stereo partly drawn) [compound 36]
Response given: 6.00 to 7.00

Challenge: Under human ghrelin receptor (hGHS-R1a) (Homo sapiens), report pEC50 for CCC[C@@H]1NCCOc2ccccc2CCCNC(=O)[C@@H](Cc2ccc(O)cc2)NC(=O)CN(C)C1=O [compound 7]
Response given: 7.00 to 9.00

Challenge: Under human ghrelin receptor (hGHS-R1a) (Homo sapiens), report pEC50 for C[C@H]1NC(=O)C2(CCCC2)NCCOc2ccccc2/C=C/CNC(=O)[C@H](Cc2cccc(Cl)c2)NC1=O [compound 351]
Response given: 7.00 to 9.00
